Tested on: MIN6
Method Description: Induction of glucose-stimulated insulin secretion in mouse MIN6 cells after 2 hrs by ELISA
Type: functional, cell-based
Stated Conditions: MIN6, 2 h
Assay Metric: pEC50
To interpret pEC50, take it as minus log10 of a concentration measured in moles per litre.

Some compounds with recorded pEC50:
| Molecule | Quantitative Readout |
| --- | --- |
| CC[C@]12C=CCN3CC[C@@]4(c5ccc(OC)cc5N(C)[C@H]4[C@@](O)(C(=O)OC)[C@@H]1OC(=O)c1ccccc1)[C@@H]32 | 4.21 |
| CCO[C@@H]1[C@]2(CC)C=CCN3CC[C@@]4(c5ccc(OC)cc5N(C)[C@H]4[C@@]1(O)C(=O)OC)[C@@H]32 | 4.21 |
| CC[C@]12C=CCN3CC[C@@]4(c5ccc(OC)cc5N(C)[C@H]4[C@@](O)(C(=O)OC)[C@@H]1OC(=O)C1CCCCC1)[C@@H]32 | 4.09 |
| CCC(=O)NC[C@@]1(O)[C@H](OC(C)=O)[C@]2(CC)C=CCN3CC[C@@]4(c5ccc(OC)cc5N(C)[C@@H]14)[C@@H]32 | 4.90 |
| CC[C@]12C=CCN3CC[C@@]4(c5ccc(OC)cc5N(C)[C@H]4[C@@](O)(C(=O)OC)[C@@H]1OC(=O)C(C)C)[C@@H]32 | 4.98 |

pEC50 lookup needed for `CC[C@]12C=CCN3CC[C@@]4(c5ccc(OC)cc5N(C)[C@H]4[C@@](O)(C(=O)OC)[C@@H]1OC(C)=O)[C@@H]32` , thanks.
4.30

# input compound: `CCC(=O)NC[C@@]1(O)[C@H](OC(=O)C(C)C)[C@]2(CC)C=CCN3CC[C@@]4(c5ccc(OC)cc5N(C)[C@@H]14)[C@@H]32` ; wanted: its pEC50
4.73

Given the compound `CCC(=O)O[C@@H]1[C@]2(CC)CCCN3CC[C@@]4(c5ccc(OC)cc5N(C)[C@H]4[C@@]1(O)C(=O)OC)[C@@H]32` , what is its reported pEC50?
4.41
